Every entry's value here was drawn from ChEMBL document CHEMBL4385609.

Test system: A549
Experiment: Antiproliferative activity against human A549 cells assessed as reduction in cell growth incubated for 24 hrs by MTT assay
Type: functional, cell-based
Settings: A549, 24 h
quantity_measured: pIC50
Please report pIC50 as the negative decimal logarithm of the molar concentration, giving only the number.

For CC[C@@]1(C)Oc2cc(c([S+]([O-])CCCCCO)cc2O)[C@@H](O)[C@H](NC)C(=O)N[C@@H](C(C)C)C(=O)NC1C(=O)NCC(=O)O (stereo partly specified) , what is its reported pIC50? 4.44

---

Tested on: HeLa
Experiment: Antiproliferative activity against human HeLa cells assessed as reduction in cell growth
Assay type: functional, cell-based
quantity_measured: pIC50
// scale note: pIC50 = -log10(conc_M); give the bare number

GET /values?readout=pIC50&item= `COc1cc2cc(c1Cl)N(C)C(=O)C[C@H](OC(=O)C(C)C)[C@]1(C)O[C@@H]1[C@H](C)[C@@H]1C[C@@](O)(NC(=O)O1)[C@H](OC)/C=C/C=C(\C)C2` 8.30

---

Test: Antiproliferative activity against human MCF cells assessed as reduction in cell growth incubated for 48 hrs by MTT assay
Type: functional, cell-based
quantity_measured: IC50

What value of measured IC50 is listed for `C=CC(C)(C)c1[nH]cnc1/C=C1\NC(=O)[C@H](Cc2ccccc2)NC1=O` ? 180 to 330 nM
